We begin with a simple list: items and their reported VEGFR-2 RQ (relative quantification).
molecular target: VEGFR-2 (Homo sapiens); construct: Western blot technique was considered for EGFR and VEGFR-2 properties determination; endogenous in cells; host or cells: MCF7 (breast cancer cell line); format: cell-based; details: western blot, MCF7, compound at its MTT IC50; control RQ 3.2634
Sequence (P35968 20-1356): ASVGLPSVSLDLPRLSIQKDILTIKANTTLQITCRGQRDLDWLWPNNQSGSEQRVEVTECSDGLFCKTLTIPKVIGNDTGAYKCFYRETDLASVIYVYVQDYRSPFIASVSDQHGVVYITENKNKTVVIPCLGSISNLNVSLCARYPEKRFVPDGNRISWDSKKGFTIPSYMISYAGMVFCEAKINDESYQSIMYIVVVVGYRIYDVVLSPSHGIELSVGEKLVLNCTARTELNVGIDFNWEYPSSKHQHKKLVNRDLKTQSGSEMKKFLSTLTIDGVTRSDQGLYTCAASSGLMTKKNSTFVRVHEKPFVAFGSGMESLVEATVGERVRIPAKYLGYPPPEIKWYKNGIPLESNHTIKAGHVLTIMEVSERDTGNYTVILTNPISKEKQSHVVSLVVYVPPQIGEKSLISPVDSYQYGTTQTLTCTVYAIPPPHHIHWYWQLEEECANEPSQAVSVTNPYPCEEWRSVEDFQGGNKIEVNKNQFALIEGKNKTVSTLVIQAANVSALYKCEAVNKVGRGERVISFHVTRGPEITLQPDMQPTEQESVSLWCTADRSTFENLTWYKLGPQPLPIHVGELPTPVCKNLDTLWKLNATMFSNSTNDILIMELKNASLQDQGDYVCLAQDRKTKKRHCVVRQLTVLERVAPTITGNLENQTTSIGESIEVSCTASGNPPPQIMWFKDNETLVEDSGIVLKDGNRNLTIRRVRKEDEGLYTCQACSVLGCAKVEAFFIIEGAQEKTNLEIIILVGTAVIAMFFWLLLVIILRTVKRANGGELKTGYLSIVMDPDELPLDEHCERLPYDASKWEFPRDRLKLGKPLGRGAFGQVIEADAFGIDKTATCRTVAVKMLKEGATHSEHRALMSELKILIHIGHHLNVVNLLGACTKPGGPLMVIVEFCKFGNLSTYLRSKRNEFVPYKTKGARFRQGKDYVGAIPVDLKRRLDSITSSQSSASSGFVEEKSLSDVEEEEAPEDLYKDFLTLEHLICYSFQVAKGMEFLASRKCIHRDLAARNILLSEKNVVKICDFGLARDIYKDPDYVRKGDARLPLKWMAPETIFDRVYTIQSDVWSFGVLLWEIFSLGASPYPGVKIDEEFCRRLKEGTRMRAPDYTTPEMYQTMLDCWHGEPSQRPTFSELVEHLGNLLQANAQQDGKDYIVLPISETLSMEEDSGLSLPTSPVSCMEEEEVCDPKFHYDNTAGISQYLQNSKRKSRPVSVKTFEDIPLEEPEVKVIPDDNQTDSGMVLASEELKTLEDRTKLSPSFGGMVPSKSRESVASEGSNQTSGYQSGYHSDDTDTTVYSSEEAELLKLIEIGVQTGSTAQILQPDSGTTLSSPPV
Answer as a number with no unit attached.

A selection of reference data follows.
molecule="COc1ccc(/C=C2\\CN(S(C)(=O)=O)CC3(C2=O)C(c2ccc(OC)c(OC)c2)CN(C)C32C(=O)Nc3ccccc32)cc1OC (stereo not drawn) [Compound 6n]" value_type="VEGFR-2 RQ (relative quantification)" reported_measurement=1.167
molecule="CN1CC(c2ccc(Cl)cc2)C2(CN(S(C)(=O)=O)C/C(=C\\c3ccc(Cl)cc3)C2=O)C12C(=O)Nc1ccccc12 (stereo not drawn) [Compound 6i]" value_type="VEGFR-2 RQ (relative quantification)" reported_measurement=1.1684

Kindly indicate its recorded VEGFR-2 RQ (relative quantification). Item: CN1CC(c2ccc(F)cc2)C2(CN(S(C)(=O)=O)C/C(=C\c3ccc(F)cc3)C2=O)C12C(=O)Nc1ccccc12 (stereo not drawn) [Compound 6e] 1.158
